Ref: paper PMC5540273

Reported %Inh by item:
- Tested on: FES
- stated.conditions: concentration: 1 μM, replicates: in singlicate; n = 1;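 note: KINOMEscan kinase panel screen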
quantity.name: %Inh (%)

• COc1ccc(Nc2nccc(N3CCC(NC(=O)Nc4ccc5c(c4)OCO5)C3)n2)cc1 (centres unmarked) = 18
• CNc1nccc(-c2c(-c3ccc(F)cc3)ncn2C2CCN(C)CC2)n1 = 0
• CSc1ccc(NC2=C(c3ccccc3Cl)C(=O)NC2=O)cc1 = 0
• COc1cc2c(Nc3cccc(NC(=O)c4ccccc4)c3)ncnc2cc1OCCCN1CCOCC1 = 0
• CC(C)N1CCC(n2cnc(-c3ccc(F)cc3)c2-c2ccnc(N)n2)CC1 = 0

----------
Known %Inh of a selection of molecules
- Test system: AURKA
- stated.conditions: concentration: 1 μM, replicates: in singlicate; n = 1
quantity.name: %Inh (%)

* COc1ccc(-c2oc3ncnc(N)c3c2-c2ccc(OC)cc2)cc1 | 0
* COc1ccc(NC(=O)Nc2ccc(C)c(-c3ccc(C(=O)Nc4ccncc4)cc3)c2)cc1 | 4
* Cl.Cl.c1ccc(-c2cc3ccncc3cc2OC2CCNCC2)cc1 | 17
* O=C(Nc1n[nH]c2nc(-c3ccco3)c(Br)cc12)c1ccc(CN2CCCC2)cc1.O=C(O)[C@H](O)[C@@H](O)C(=O)O | 0
* Cc1ccc(C)c(NC(=O)NCCNc2ccnc(Nc3ccc(F)cc3)n2)c1 | 7
* CCn1c(-c2ccncc2)nc2cnccc21 | 7
* Cc1ccc(NC(=O)c2cccc(C#N)c2)cc1-c1ccc(C(=O)Nc2ccncc2)cc1 | 7
* N#Cc1ccc(Oc2ccc(Nc3ncnc4cc[nH]c34)cc2Cl)cc1 | 11
* Nc1nc(-c2ccccn2)c(-c2ccnc3ccccc23)s1 | 17
* CS(=O)(=O)CCNCc1ccc(-c2ccc3ncnc(Nc4ccc(OCc5ccccc5)c(Cl)c4)c3c2)o1.Cl | 0
* COc1ccc(NC(=O)c2ccc(-c3cc(-c4nnc(C)o4)ccc3C)cc2)cc1 | 0
* CC(C)(C)c1ccc(-n2cnc3c(N)ncnc32)cc1 | 7
* CCc1nc(-c2cccc(N(C)S(=O)(=O)c3ccccc3)c2)c(-c2ccnc(Nc3ccc(N4CCN(C(C)=O)CC4)nc3)n2)s1 | 19
* O=C(NCCCN1CCCC1=O)c1cnc(NCc2cc(Cl)ccc2Cl)nc1NC1CCNCC1 | 0
* Nc1nccc2scc(-c3ccc4c(c3)CCN4C(=O)Cc3cc(F)ccc3F)c12 | 0
* CSc1ccc(NC2=C(c3ccccc3Cl)C(=O)NC2=O)cc1 | 21
* Fc1cccc(COc2ccc(Nc3ncnc4sc(-c5ccc[nH]5)cc34)cc2Cl)c1 | 6
* Fc1cccc(COc2ccc(Nc3ncnc4nn5ccccc5c34)cc2Cl)c1 | 0

----------
- System: ACVR1B
- stated.conditions: concentration: 1 μM, replicates: in singlicate; n = 1
Parameter %Inh: see the listing below.
quantity.name: %Inh (%)

* Cl.c1ccc(Cn2ccc3cc(Nc4ncnc5ccccc45)ccc32)cc1 | 0
* COc1cc2ncnc(Nc3ccc(OCc4ccccc4Br)c(Cl)c3)c2cc1OC.Cl | 0
* COc1ccc(Nc2nccc(N3CCC(NC(=O)Nc4ccc5c(c4)OCO5)C3)n2)cc1 (stereo not drawn) | 0
* O=C(c1ccc(-c2cc(-c3c[nH]nc3-c3ccccn3)ccn2)cc1)N1CCCC1 | 77
* Cc1ccc(O)cc1Nc1cc(C(F)(F)F)nc2ccc(-c3ccncc3)cc12 | 0
* FC(F)(F)c1cc(Nc2nccc(-c3c(-c4ccc(Cl)cc4)nn4ncccc34)n2)ccc1Cl | 0
* N#Cc1ccc(Oc2ccc(Nc3ncnc4cc[nH]c34)cc2Cl)cc1 | 15
* Cn1cc(-c2ccc3c(c2)CCN3C(=O)Cc2cccc(C(F)(F)F)c2)c2c(N)ncnc21 | 0
* O=C(Nc1ccccc1)Nc1ccc(Oc2ccc3nccn3n2)cc1 | 0
